Cited source for all entries: patent US7608619B2

For each record, write down the corresponding inhibition at 1 µM.
# Test System: human μ-opiate receptor (Homo sapiens, UniProt P35372)
# Construct: purchased Nen company, Zaventem, Belgium RB-HOM; host or cells: CHO-K1 cells (membrane preparation)
# Sequence (P35372 whole entry): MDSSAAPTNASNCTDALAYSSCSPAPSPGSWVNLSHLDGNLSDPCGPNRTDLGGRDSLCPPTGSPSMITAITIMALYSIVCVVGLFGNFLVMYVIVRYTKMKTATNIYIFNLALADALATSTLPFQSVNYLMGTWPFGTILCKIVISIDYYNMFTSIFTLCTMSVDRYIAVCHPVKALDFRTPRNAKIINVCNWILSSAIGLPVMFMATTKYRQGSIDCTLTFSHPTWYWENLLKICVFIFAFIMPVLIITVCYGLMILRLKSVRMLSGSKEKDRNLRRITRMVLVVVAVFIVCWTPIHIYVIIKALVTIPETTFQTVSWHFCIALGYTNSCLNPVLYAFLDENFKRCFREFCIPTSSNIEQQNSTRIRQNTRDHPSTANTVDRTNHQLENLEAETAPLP
# Protocol Summary: Affinity for the human μ-opiate receptor ([3H]-naloxone displacement, SPA, CHO-K1 membrane preparation)
# Measurement Conditions: test substance 1 μmole/l; displacement of 1 nmole/l [3H]-naloxone; percentage inhibition of the specific binding; read-out: μ-opioid receptor, % inhibition [1 μM]
# Description: Method for Determining the Affinity for the Human μ-Opiate Receptor The receptor affinity for the human μ-opiate receptor is determined in a homogeneous batch in microtiter plates. […] After the end of the 90 minutes' incubation time the microtiter plates are centrifuged for 20 minutes at 1000 g and the radioactivity is measured in a beta counter (Microbeta-Trilux, PerkinElmer Wallac, Freiburg, Germany). […]
Please respond with the number in % and leave the unit unwritten.

Name the recorded inhibition at 1 µM of the item CN(Cc1ccccc1)c1oc(C(CC2CCC(C(c3cccs3)N(C)C)CC2)N2CCCCC2)nc1Cc1ccccc1 (centres unmarked) [compound 75] in your answer.
90

Could you please provide reported inhibition at 1 µM for CCN(CC)C(CC1CCC(C(c2ccc(Cl)cc2)N(C)C)CC1)c1nc(Cc2ccccc2)c(N2CCC(C)CC2)o1 (centres unmarked) [compound 60] ? Thanks!
68

Check the records and state inhibition at 1 µM for CC1CC(C)CN(c2oc(C(C3CCC(C(c4ccc(F)cc4)N(C)C)CC3)N(C)c3ccccc3)nc2Cc2ccccc2)C1 (centres unmarked) [compound 37]
68

Query inhibition at 1 µM for CCN(CC)C(c1nc(Cc2ccccc2)c(N(C)CCc2ccccc2)o1)C1CCC(C(c2ccc(F)cc2)N(C)C)CC1 (centres unmarked) [compound 34]
84

Please give the documented inhibition at 1 µM of CCN(CC)c1oc(C(C2CCC(C(c3cccs3)N(C)C)CC2)N2CCCCC2)nc1Cc1ccccc1 (centres unmarked) [compound 47]
73

Please give the documented inhibition at 1 µM of CCN(CC)c1oc(C(C2CCC(C(c3ccc(Cl)cc3)N(C)C)CC2)N2CCN(Cc3ccccc3)CC2)nc1Cc1ccccc1 (centres unmarked) [compound 44]
67

Specify measured inhibition at 1 µM for COc1ccc(N2CCN(c3oc(C(CC4CCC(C(c5cccs5)N(C)C)CC4)N4CCOCC4)nc3Cc3ccccc3)CC2)cc1 (centres unmarked) [compound 159] .
94

Complete the entry with inhibition at 1 µM for COc1ccc(N2CCN(C(CC3CCC(C(c4cccc(F)c4)N(C)C)CC3)c3nc(Cc4ccccc4)c(N4CC(C)OC(C)C4)o3)CC2)cc1 (centres unmarked) [compound 156]
74

Please list inhibition at 1 µM recorded for the compound CN(C)C(c1ccc(Cl)cc1)C1CCC(C(c2nc(Cc3ccccc3)c(N3CCOCC3)o2)N2CCOCC2)CC1 (centres unmarked) [compound 130]
77

Respond only with inhibition at 1 µM recorded for CC1CCCN(c2oc(C(C3CCC(C(c4ccc(Cl)cc4)N(C)C)CC3)N3CCCCC3)nc2Cc2ccccc2)C1 (centres unmarked) [compound 40]
60

Please report the measured inhibition at 1 µM for COc1ccc(N2CCN(C(c3nc(Cc4ccccc4)c(N4CC(C)OC(C)C4)o3)C3CCC(C(c4ccc(Cl)cc4)N(C)C)CC3)CC2)cc1 (centres unmarked) [compound 136]
62

Supply reported inhibition at 1 µM belonging to this compound: CCN(CC)C(CC1CCC(C(c2ccc(F)cc2)N(C)C)CC1)c1nc(Cc2ccccc2)c(N2CCC(C)CC2)o1 (centres unmarked) [compound 69]
82

Respond only with inhibition at 1 µM recorded for CCN(CC)C(CC1CCC(C(c2ccc(F)cc2)N(C)C)CC1)c1nc(Cc2ccccc2)c(N2CC(C)CC(C)C2)o1 (centres unmarked) [compound 96]
80

In one line, give reported inhibition at 1 µM of the entry CCN(CC)C(c1nc(Cc2ccccc2)c(N2CCC(Cc3ccccc3)CC2)o1)C1CCC(C(c2cccs2)N(C)C)CC1 (centres unmarked) [compound 27] .
78

---

# Test System: human μ-opiate receptor (Homo sapiens)
# Construct: purchased Nen company, Zaventem, Belgium RB-HOM; host or cells: CHO-K1 cells (membrane preparation)
# Protocol Summary: Affinity for the human μ-opiate receptor ([3H]-naloxone displacement, SPA, CHO-K1 membrane preparation)
# Measurement Conditions: test substance 1 μmole/l; displacement of 1 nmole/l [3H]-naloxone; percentage inhibition of the specific binding; read-out: μ-opioid receptor, % inhibition [1 μM]
Field: inhibition at 1 µM. Provide a value for each of the molecules that follow.
Please state the value followed by its unit.

Provide inhibition at 1 µM value for the following molecule: CN(C)C(c1cccs1)C1CCC(C(c2nc(Cc3ccccc3)c(N3CCOCC3)o2)N2CCOCC2)CC1 (centres unmarked)
72%

Provide measured inhibition at 1 µM value, entry: CN(C)C(c1cccc(F)c1)C1CCC(C(c2nc(Cc3ccccc3)c(N3CCOCC3)o2)N2CCc3ccccc3C2)CC1 (centres unmarked)
76%

Return inhibition at 1 µM for the following molecule: CCN(CC)C(CC1CCC(C(c2ccc(Cl)cc2)N(C)C)CC1)c1nc(Cc2ccccc2)c(N2CCC(Cc3ccccc3)CC2)o1 (centres unmarked)
60%

For the molecule CC1CC(C)CN(c2oc(C(CC3CCC(C(c4cccs4)N(C)C)CC3)N3CCCCC3)nc2Cc2ccccc2)C1 (centres unmarked) , report inhibition at 1 µM.
84%

Note inhibition at 1 µM for the molecule shown: CC1CCCN(c2oc(C(CC3CCC(C(c4cccs4)N(C)C)CC3)N3CCN(Cc4ccccc4)CC3)nc2Cc2ccccc2)C1 (centres unmarked)
99%

Specify reported inhibition at 1 µM for the molecule shown: CC1CN(c2oc(C(CC3CCC(C(c4cccc(F)c4)N(C)C)CC3)N3CCOCC3)nc2Cc2ccccc2)CC(C)O1 (centres unmarked)
65%

Check the records and state inhibition at 1 µM for CCN(CC)C(CC1CCC(C(c2cccs2)N(C)C)CC1)c1nc(Cc2ccccc2)c(N2CCC(C)CC2)o1 (centres unmarked)
97%

Complete the entry with inhibition at 1 µM for CC1CCN(c2oc(C(CC3CCC(C(c4cccs4)N(C)C)CC3)N3CCCCC3)nc2Cc2ccccc2)CC1 (centres unmarked)
79%

State, in one line, measured inhibition at 1 µM of CC1CCN(c2oc(C(C3CCC(C(c4ccc(F)cc4)N(C)C)CC3)N(C)c3ccccc3)nc2Cc2ccccc2)CC1 (centres unmarked)
63%

Find the measured inhibition at 1 µM of CN(CCc1ccccc1)c1oc(C(C2CCC(C(c3cccs3)N(C)C)CC2)N2CCN(Cc3ccccc3)CC2)nc1Cc1ccccc1 (centres unmarked) and report it.
74%

Please list inhibition at 1 µM recorded for the molecule COc1ccc(N2CCN(c3oc(C(C4CCC(C(c5ccc(Cl)cc5)N(C)C)CC4)N4CCOCC4)nc3Cc3ccccc3)CC2)cc1 (centres unmarked)
64%

Could you please provide reported inhibition at 1 µM for CCN(CC)C(CC1CCC(C(c2cccs2)N(C)C)CC1)c1nc(Cc2ccccc2)c(N(C)Cc2ccccc2)o1 (centres unmarked) ? Thanks!
93%

Return inhibition at 1 µM (reported value) for this molecule: CN(C)C(c1cccs1)C1CCC(CC(c2nc(Cc3ccccc3)c(N3CCN(c4ccccc4)CC3)o2)N2CCCCC2)CC1 (centres unmarked)
94%

Specify reported inhibition at 1 µM for the molecule shown: CCN(CC)C(CC1CCC(C(c2cccs2)N(C)C)CC1)c1nc(Cc2ccccc2)c(N2CC(C)CC(C)C2)o1 (centres unmarked)
89%

---

Assign inhibition at 1 µM to each entry below.
# Test System: human μ-opiate receptor (Homo sapiens)
# Construct: purchased Nen company, Zaventem, Belgium RB-HOM; host or cells: CHO-K1 cells (membrane preparation)
# Protocol Summary: Affinity for the human μ-opiate receptor ([3H]-naloxone displacement, SPA, CHO-K1 membrane preparation)
# Measurement Conditions: test substance 1 μmole/l; displacement of 1 nmole/l [3H]-naloxone; percentage inhibition of the specific binding; read-out: μ-opioid receptor, % inhibition [1 μM]
Form entry: value (%) — number only.

Fill in inhibition at 1 µM for record CN(C)C(c1cccc(F)c1)C1CCC(C(c2nc(Cc3ccccc3)c(N3CCCC3)o2)N2CCOCC2)CC1 (stereo not shown) [compound 120]
75

Return the recorded inhibition at 1 µM value; entry: CN(C)C(c1ccc(Cl)cc1)C1CCC(C(c2nc(Cc3ccccc3)c(N3CCCC3)o2)N2CCc3ccccc3C2)CC1 (stereo not shown) [compound 137]
85

Read off the recorded inhibition at 1 µM for CC1CCCN(c2oc(C(CC3CCC(C(c4ccc(F)cc4)N(C)C)CC3)N(C)c3ccccc3)nc2Cc2ccccc2)C1 (stereo not shown) [compound 105]
71

Supply inhibition at 1 µM value. Item: CN(C)C(c1cccc(F)c1)C1CCC(C(c2nc(Cc3ccccc3)c(N3CCCC3)o2)N2CCN(c3ccc(F)cc3)CC2)CC1 (stereo not shown) [compound 122]
72

Give recorded inhibition at 1 µM. CN(CCc1ccccc1)c1oc(C(C2CCC(C(c3cccs3)N(C)C)CC2)N2CCCCC2)nc1Cc1ccccc1 (stereo not shown) [compound 46]
80

Please give the documented inhibition at 1 µM of CN(C)C(c1ccc(Cl)cc1)C1CCC(C(c2nc(Cc3ccccc3)c(N3CCCC3)o2)N2CCOCC2)CC1 (stereo not shown) [compound 129]
75

Indicate its recorded inhibition at 1 µM; the compound in question is CCN(CC)C(c1nc(Cc2ccccc2)c(N2CCC(C)CC2)o1)C1CCC(C(c2cccs2)N(C)C)CC1 (stereo not shown) [compound 29]
95
